Biological target: human orexin-2 receptor (Homo sapiens (Human))
Sequence (O43614 whole entry): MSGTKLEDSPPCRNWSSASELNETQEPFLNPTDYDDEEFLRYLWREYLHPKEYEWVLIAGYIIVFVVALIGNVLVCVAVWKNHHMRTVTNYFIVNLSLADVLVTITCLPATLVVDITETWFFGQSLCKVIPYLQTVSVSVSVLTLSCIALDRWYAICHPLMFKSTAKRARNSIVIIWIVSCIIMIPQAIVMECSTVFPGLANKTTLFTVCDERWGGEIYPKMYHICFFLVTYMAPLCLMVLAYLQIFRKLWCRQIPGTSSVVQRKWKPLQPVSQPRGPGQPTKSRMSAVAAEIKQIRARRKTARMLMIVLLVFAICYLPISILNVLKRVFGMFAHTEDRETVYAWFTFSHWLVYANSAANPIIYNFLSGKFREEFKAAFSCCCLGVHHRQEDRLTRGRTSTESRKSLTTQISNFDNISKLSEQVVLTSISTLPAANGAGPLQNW
Assay: In vitro intracellular calcium measurements (FLIPR), antagonistic activity on orexin-2 receptor
Format: cell-based
Settings: CHO cells expressing human orexin-2 receptor; FLIPR; 3 nM orexin-A agonist; 120 min antagonist incubation; geometric mean if determined several times; read-out: IC50 OX2
Experimental: In Vitro Assay: Intracellular Calcium Measurements: […] Within the Fluorescent Imaging Plate Reader (FLIPR Tetra, Molecular Devices), antagonists are added to the plate in a volume of 10 μL/well, incubated for 120 min and finally 10 μL/well of agonist is added. Fluorescence is measured for each well at 1 second intervals, and the height of each fluorescence peak is compared to the height of the fluorescence peak induced by 3 nM orexin-A with vehicle in place of antagonist. […]
pIC50: −log10 of the molar value.

| compound | pIC50 |
| --- | --- |
| CC[C@@H]1CN(C(=O)c2ccccc2-n2nccn2)[C@H](Cc2cccc(-n3nccn3)c2)CO1 [Example 143] | 6.31 |
| COc1cc(C(=O)N2CCOC[C@H]2Cc2cccc(-n3nccn3)c2)c(-n2nccn2)cc1C [Example 37] | 6.68 |
| Cc1ccc(-n2nccn2)c(C(=O)N2CCOC[C@H]2Cc2cccc(-n3cccc3)c2)c1 [Example 38] | 6.88 |
| Cc1ccc(C(=O)N2C[C@@H](C)OC[C@H]2Cc2cccc(-c3ncccn3)c2)c(-n2nccn2)c1C [Example 112] | 6.08 |
| Cc1ccc(-n2nccn2)c(C(=O)N2CCOC[C@H]2Cc2cc(-n3nccn3)ccc2Cl)c1 [Example 125] | 6.20 |
| Cc1ccc(-n2nccn2)c(C(=O)N2CCOC[C@H]2Cc2cc(-n3cccn3)ccc2C)c1 [Example 188] | 5.67 |
| C[C@@H]1CN(C(=O)c2ccc(Cl)cc2-n2nccn2)[C@H](Cc2cccc(-c3ncccn3)c2)CO1 [Example 114] | 7.08 |
| COc1ccc(C[C@@H]2COCCN2C(=O)c2ccccc2-n2nccn2)cc1-c1cnccn1 [Example 6] | 5.71 |
| COc1ccc(C[C@@H]2COCCN2C(=O)c2ccccc2-n2nccn2)cc1-c1ncon1 [Example 59] | 7.10 |
| Cc1cc(C(=O)N2CCOC[C@H]2Cc2cc(-n3nccn3)ccc2F)c(-n2nccn2)cc1C [Example 128] | 7.52 |
| Cc1cccc(C(=O)N2CCOC[C@H]2Cc2cccc(-n3nccn3)c2)c1-n1nccn1 [Example 64] | 6.11 |
| O=C(c1ccc(C(F)(F)F)cc1-n1nccn1)N1CCOC[C@H]1Cc1cc(-n2nccn2)ccc1F [Example 138] | 6.80 |
| COc1ccc(C[C@@H]2COCCN2C(=O)c2ccc(C)cc2-n2nccn2)cc1-c1ncon1 [Example 60] | 7.47 |
| C[C@@H]1COC[C@@H](Cc2cccc(-n3nccn3)c2)N1C(=O)c1ccccc1-n1nccn1 [Example 68] | 5.89 |
| O=C(c1cc(Cl)ccc1-n1nccn1)N1CCOC[C@H]1Cc1cccc(-c2ncccn2)c1 [Example 51] | 6.64 |
| COc1ccc(C[C@@H]2COCCN2C(=O)c2ccccc2-n2nccn2)cc1-c1ncco1 [Example 9] | 6.33 |
